Ref: patent US20230000870A1

- Experimental target: CDK2/Cyclin E1 complex (Homo sapiens, UniProt P24941)
- Assay method text: CDK2 kinase inhibition assay (Caliper/LabChip EZ Reader)
- Assay setup: CDK2/Cyclin E1 0.5 nM, ATP 2 mM, 35 min at 27° C.
Quantity kind: IC50

Query: Write down the reported IC50 of CN1CCN(c2cccc3c(-c4nc(NC5CCCNC5)ncc4C(F)(F)F)c[nH]c23)C1=O (centres unmarked) , test system: CDK2/Cyclin E1 complex (Homo sapiens, UniProt P24941).
Result: 0.2 to 5 µM

Query: Give CDK2/Cyclin E1 complex (Homo sapiens, UniProt P24941) IC50 for CCOP(=O)(OCC)c1ccc2c(-c3nc(NC4CCCNC4)ncc3C(F)(F)F)c[nH]c2c1 (centres unmarked)
Result: ≥ 5 µM

Query: Fill in the recorded IC50 for this compound, with CDK2/Cyclin E1 complex (Homo sapiens, UniProt P24941) as test system: `CCc1cnc(N[C@H]2CCCNC2)nc1-c1c[nH]c2c(F)c(C#N)ccc12`
Result: ≥ 5 µM

Query: Param readout= IC50; system= CDK2/Cyclin E1 complex (Homo sapiens, UniProt P24941); entry= FC(F)(F)c1cnc(NC2CNCC(c3nnc4ccccn34)C2)nc1-c1c[nH]c2ccccc12 (centres unmarked) [Compound 266] ; returns value.
Result: 0.2 to 5 µM

Query: Give the reported IC50 for `CC1(C)CCNC[C@H]1Nc1ncc(C(F)(F)F)c(-c2c[nH]c3ccccc23)n1` (system: CDK2/Cyclin E1 complex (Homo sapiens, UniProt P24941)).
Result: ≥ 5 µM

Query: Please state recorded IC50 (tested on CDK2/Cyclin E1 complex (Homo sapiens, UniProt P24941)) of FC(F)(F)c1cnc(NC2CCCNC2)nc1-c1c[nH]c2cc(-c3ccnc4ccccc34)ccc12 (centres unmarked)
Result: ≥ 5 µM

Continuing:
Query: Missing value: IC50, CDK2/Cyclin E1 complex (Homo sapiens, UniProt P24941), entry Clc1cnc(NC2CCCNC2)nc1-c1c[nH]c2cccnc12 (centres unmarked) . Fill in?
Result: ≥ 5 µM

Query: For CDK2/Cyclin E1 complex (Homo sapiens, UniProt P24941), provide IC50 of Cn1ccc(-c2ccc3c(-c4nc(NC5CCCNC5)ncc4C(F)(F)F)c[nH]c3c2)n1 (centres unmarked) please.
Result: 0.2 to 5 µM
